The compounds listed here are annotated with their log10(TGI).
test system: A498 renal; assay: NCI tumour cell line growth inhibition, 48 h
Log10 applied to TGI; unit prior to transform: µM.

- compound: "Cc1cc2nc3c(=O)n(C)c(=O)nc-3n(-c3ccc(Cl)cc3)c2cc1C"
  log10(TGI): 1.95
- compound: "COc1ccc(NC(=O)C2C(=O)N(c3ccc(OC)cc3)C(=O)/C2=N/O)cc1 (stereo unspecified)"
  log10(TGI): 1.77
- compound: "COc1cc2ccnc3c2c(c1O)N(C)C=C3"
  log10(TGI): 1.37
- compound: "COc1cc(/C=C/c2cc(C(F)(F)F)[nH]c(=O)n2)ccc1OCc1ccccc1F"
  log10(TGI): 0.93
- compound: "CCN(CC)CCCNc1ccc2nnn3c4ccc(O)cc4c(=O)c1c23"
  log10(TGI): 1.39

Summary for this compound, O=C1C=C(c2c(O)ccc3ccccc23)c2ccccc2C1=O : log10(TGI) is 1.13

For record CCOC(=O)C1=C(C)NC(=S)NC1c1cccc(O)c1 (stereo unspecified) the listed log10(TGI) is 1.94

The measured log10(TGI) associated with COC(=O)C(COC(=O)/C=C/c1ccc(OC(C)=O)c(OC(C)=O)c1)OC(=O)/C=C/c1ccc(OC(C)=O)c(OC(C)=O)c1 (stereo unspecified) reads 1.63

Lab note: COc1cc(C2C3=C(COC3=O)OC(C)(C)Oc3cc4c(cc32)OCO4)cc(OC)c1OC (stereo unspecified) gave log10(TGI) of 0.17

Record CC(=O)Oc1cc(C)ccc1[C@]1(C)CC[C@H](C)/C1=C\Br , field log10(TGI): 1.23

// recorded log10(TGI) for Oc1ccc(Br)cc1Sc1cc(Br)ccc1O : 1.49

Cc1ccc2c(c1)OC1Nc3ccccc3C1=C2O (stereo unspecified) has a reported log10(TGI) of 1.66

Entry O=C1c2cc(Br)ccc2-c2c1c1ccc([N+](=O)[O-])cc1c(=O)n2CCCCl — recorded log10(TGI) = 1.29

---

tested on: TK-10 renal; experiment: NCI tumour cell line growth inhibition, 48 h
The compounds listed here are annotated with their TGI.

Previously resolved entries follow.
- compound: "NC(=O)CC(Nc1ncc2c(n1)-c1ccccc1OC2)C(=O)O (stereo not given)"
  TGI: "> 100 µM"
- compound: "COc1cc(/C=C2/SC(c3ccccc3)N(c3cccc([N+](=O)[O-])c3)C2=O)cc(OC)c1OC (stereo not given)"
  TGI: "> 100 µM"
- compound: "COc1ccc2c(c1)CCc1c-2n(CCN(C)C)c2ccc(OC)cc12"
  TGI: "80.3 µM"
- compound: "Cc1nc2ccc(C(F)(F)F)cc2nc1Nc1ccc(Cl)c(Cl)c1"
  TGI: "31.7 µM"
- compound: "CC1(C)C(=O)N(c2ccccc2)C(=O)N1c1nc2ccccc2[nH]1"
  TGI: "> 100 µM"
- compound: "OC1OC(c2ccco2)C(F)(F)C(F)(F)C1(F)F (stereo not given)"
  TGI: "> 100 µM"
- compound: "O=c1[nH]nc(Cc2ccc(Cl)cc2)n1O"
  TGI: "> 100 µM"
- compound: "Cc1cc(S(=O)(=O)Nc2nnc3cc(C(F)(F)F)cc(C)n23)c(S)cc1Cl"
  TGI: "> 100 µM"
- compound: "CC(C)=CC(C(O)c1ccccc1)S(=O)(=O)c1nccn1C (stereo not given)"
  TGI: "> 100 µM"
- compound: "CN1C2CC(=O)CC1[C@@H]1OC(c3ccccc3)O[C@H]21 (stereo not given in full)"
  TGI: "> 100 µM"

Short answer on TK-10 renal for O=C(NCCNCCO)N/N=C/c1ccc(Cl)cc1 , TGI: > 100 µM

For N#CCCc1nc2ccc(Br)cc2c(=O)n1CCO on TK-10 renal, measured TGI was > 100 µM

Query COC(=O)c1c(-c2ccccc2)cc2c3cc(-c4ccccc4)c(C(=O)OC)n3c3ccccc3n12 on TK-10 renal; TGI returned: > 100 µM

Observed TGI on TK-10 renal, entry CC(=O)CC1CCC(=O)CCC(=O)OC(CC(C)=O)CCC(=O)CCC(=O)O1 (stereo not given) , equals > 100 µM
